# Tested on: SW-620
# assay.explanation: NCI tumour cell line growth inhibition, 48 h
Activity calls are given as the source filed them. No stated cut-off is given here; in the data, active = GI50 up to about 1.1 µM and inactive = higher.
Could you please pick one outcome from this set? active, inactive

Use the examples below as a reference point.
>  <compound>
CC(=O)Oc1cc(OC(C)=O)c(OC(C)=O)c2c1CC1C(=O)C3(CCc4ccccc43)C(=O)C1C2 (stereo not given)

>  <category>
inactive

$$$$
>  <compound>
Cc1ccc(/N=C/C=C(\Nc2ccc(C)cc2)c2ccc3ccccc3c2)cc1

>  <category>
active

$$$$

# input How did this test come out for CC1=C(C)C2(C#N)C(=O)N3C(=NC(c4ccccc4)NC3c3ccccc3)C2(C#N)C(c2ccccc2)N1 (stereo not given) ?
# output inactive

# input Each compound tested received a call. Report the one for N#CCCN(CCC#N)c1ccc(/C=C2\N=C(c3cc([N+](=O)[O-])ccc3Cl)OC2=O)cc1 .
# output inactive

# input // return assay outcome for O=c1ccc2ccc(S)cc2o1
# output inactive
